- target: T1, human Proprotein Convertase Subtilisin-like/Kexin type 9 (human, UniProt Q8NBP7 31-692, limits assumed)
- T1 construct: Biotinylated in the ELISAs; unlabelled analyte in BLI and SPR; also called human PCSK9; PCSK9
- T1 sequence (Q8NBP7 31-692 limits assumed): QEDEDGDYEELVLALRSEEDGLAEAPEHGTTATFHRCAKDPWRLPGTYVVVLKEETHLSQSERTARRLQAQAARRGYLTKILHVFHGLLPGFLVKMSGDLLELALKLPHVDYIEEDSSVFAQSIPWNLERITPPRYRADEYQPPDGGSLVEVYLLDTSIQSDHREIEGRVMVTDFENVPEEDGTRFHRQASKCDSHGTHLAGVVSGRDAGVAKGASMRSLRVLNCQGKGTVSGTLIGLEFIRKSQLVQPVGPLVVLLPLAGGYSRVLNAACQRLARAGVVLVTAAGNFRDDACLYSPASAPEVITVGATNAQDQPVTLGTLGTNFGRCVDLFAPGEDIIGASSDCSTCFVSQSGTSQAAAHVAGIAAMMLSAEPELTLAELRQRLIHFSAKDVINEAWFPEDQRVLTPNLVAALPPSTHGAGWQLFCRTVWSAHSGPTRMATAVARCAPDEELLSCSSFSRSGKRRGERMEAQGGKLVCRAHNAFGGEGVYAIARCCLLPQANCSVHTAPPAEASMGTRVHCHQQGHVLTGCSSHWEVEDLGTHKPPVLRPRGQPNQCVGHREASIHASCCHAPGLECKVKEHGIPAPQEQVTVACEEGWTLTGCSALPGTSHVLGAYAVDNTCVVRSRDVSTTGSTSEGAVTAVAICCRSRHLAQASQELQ
- test-details: BLI (Octet QK), biotinylated antibody on streptavidin sensors, human PCSK9 in solution, 1:1 fit
Reported values of kon for individual entries
Answer format: number, then unit.

Reference set (2 entries):
>>> reading("Ab14 (antibody, human IgG1, kappa, N297A, V domains shown, also called antibody Ab14) VH: QEQLEESGGDLVKPEGSLTLTCTGSGFSFSSIAYMCWIRQAPGKGLEWIGCIGSGSGNTYYANWAKGRFTISKSSSTTVTLQMTSLTAADTATYFCASDTNNGWLGQFNLWGQGTLVTVSS VL: DIVMTQTPASVSAAVGGTVTINCQASQSISSYLAWYQQKPGQPPKLLIYRASTLASGVPSRFKGSGSGTQFTLTISDLECADAATYYCQGYYSVTTNTYGNTFGGGTEVVVKR")
"97900 M⁻¹ s⁻¹"
>>> reading("Ab4 (antibody, human IgG1, kappa, N297A, V domains shown, also called antibody Ab4) VH: QSVEESGGRLVTPGTPLTLTCTVSGIDLSSYAMIWVRQAPEKGLEYIGYIGGIDSTYYASWAKGRFTISKTSTTVDLKMTSPTTEDTATYFCGRWSGTSGYNTIWGPGTLVTVSS VL: DVVMTQTPASVEAAVGGTVTIKCQASQSIYSNLAWYQQKPGQPPKLLIYGASNLASGVSSRFKGSRSGTEYTLTISDLECADAATYYCQCTGGGDSGNTFGGGTEVVVKR")
"70300 M⁻¹ s⁻¹"

// query State its kon: Ab5 (antibody, human IgG1, kappa, N297A, V domains shown, also called antibody Ab5) VH: QSVEESGGRLVTPGTPLTLTCTVSGFSLSSYAMSWVRQAPGKGLEWIGIISNSGTTYYASWAKGRFTISKTSTTVDLKITSPTTEDTATYFCARGIYWYWRVFNLWGPGTLVTVSS VL: AVLTQTPSPVSAAVGGTVTINCQASQSVYNNLLSWYQQKPGQPPKLLIYDASNLASGVPDRFSGSGSGTQFTLTISGVQCDDAATYYCLGGYDDDADNAFGGGTEVVVKR
// result 88100 M⁻¹ s⁻¹

// query Supply recorded kon for Ab17 (antibody, human IgG1, kappa, N297A, V domains shown, also called antibody Ab17) VH: QEQLEESGGDLVKPEGSLTLTCTASGFSFSSSYWICWVRQAPGKGLEWIGCIRPGSADYYASWAKGRFTISRASSSTVTLQMTSLTAADTATYFCASDINDGWLGQFNLWGPGTLVTVSS VL: DVVMTQTPASVEAAVGGTVTIKCQASLSIADYLAWYLQKPGQPPKLLIYRASTLASGVPSRFKGSGSGTEYTLTISDLECADAATYYCQSYYSVTTNTYGNTFGGGTEVVVKR here.
// result 103000 M⁻¹ s⁻¹

// query Indicate its recorded kon; the binder in question is Ab9 (antibody, human IgG1, kappa, N297A, V domains shown, also called antibody Ab9) VH: QSVEESGGRLVTPGTPLTLTCTVSGIDLSSYAMGWVRQAPGKGLEYIGIIVSYGPTYYASWAKGRFTISKTSTTVDLKITSPTAEDTATYFCARDLDANSSGYYGCFNIWGQGTLVTVSS VL: AVVLTQTPASVSAAVGGTVTIKCQASQSISTALAWYQQKPGQPPKLLIYAASPLASGVSSRFKSSGSGTEFTLTISDLECADAATYYCQSYYGSSNIAFGGGTELEILR
// result 77000 M⁻¹ s⁻¹
